experimental.details: superoxide lowering in aged yeast cells, pilot screen, validation compound set (AID 2706);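 also: yeast exposed to compound for one week at 30 degrees C before staining; 100% = mean of all compound wells on the same plate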
test.settings: S. cerevisiae aging, superoxide DHE fluorescence; at 10 µM, stronger effect = lower value
measurement.kind: superoxide response (% of plate) (%)

>>> measured_value("CO/N=C(\\C(=O)N[C@@H]1C(=O)N2C(C(=O)O)=C(COC(C)=O)CS[C@H]12)c1csc(N)n1 (stereo in doubt)")
93.9
>>> measured_value("N=C(N)c1ccc(OCCCCCOc2ccc(C(=N)N)cc2)cc1")
98
>>> measured_value("CCCN1C[C@H](CSC)C[C@@H]2c3cccc4[nH]cc(c34)C[C@H]21")
77.2
>>> measured_value("CC(C)CCOCC(=O)Nc1cccc(C(=O)O)c1")
110
>>> measured_value("COc1cc(OC)c(C(=O)CCCN2CCCC2)c(OC)c1")
97.6
>>> measured_value("COc1ccc2[nH]c3c(c2c1)CCn1c-3nc2ccccc2c1=O")
95.3
>>> measured_value("COc1cccc(OC2OC3COC(C)(C)OC3C(O)C2NC(C)=O)c1 (stereo unspecified)")
97.8
>>> measured_value("CC(=O)Oc1ccc(C2OC(=O)c3ccccc3N2C(C)=O)cc1 (stereo unspecified)")
98.4
>>> measured_value("O=C(COc1ccccc1)N1CCN(c2ccccc2)CC1")
94
>>> measured_value("CC(=O)NC1C(OCCOc2ccc(Cl)cc2Cl)OC(COC(C)=O)C(OC(C)=O)C1OC(C)=O (stereo unspecified)")
108
>>> measured_value("COc1ccc2[nH]cc(C(=O)CCl)c2c1")
101

----------
The entries below are paired with their reported efflux inhibition (fraction of control).
experimental.details: inhibitors of fungal efflux pumps CDR1, CDR2, MDR1, pilot screen, validation compound set, multiplex, phenotypic (AID 588506);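 also: Nile Red retained in cells so higher fluorescence means more efflux inhibition; 0 = negative control wells and 1 = enniatin B 25 µM full block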
test.settings: S. cerevisiae pump-expressing triplex, Nile Red efflux flow cytometry; at 10 µM; stronger effect = higher value; the pumps come from Candida albicans
measurement.kind: efflux inhibition (fraction of control)

>>> measured_value("CCC(=O)Oc1ccc(/C(CC)=C(\\CC)c2ccc(OC(=O)CC)cc2)cc1")
-0.02
>>> measured_value("Cc1oc2ccc(OC(=O)c3cccs3)cc2c1C(=O)OC(C)C")
-0.09
>>> measured_value("COc1ccc(/C=C\\C(=O)c2c(O)ccc3c(C)cc(=O)oc23)cc1OC")
0.29
>>> measured_value("O=C1C2C3C=CC(C4CC34)C2C(=O)N1/N=C/c1ccc(-c2ccc([N+](=O)[O-])cc2)o1 (stereo unspecified)")
0.19
>>> measured_value("O=C(O)C1Sc2[nH]c(=O)sc2C2c3ccc(O)cc3OC(=O)C12 (stereo unspecified)")
-0.1
>>> measured_value("CCn1c(O)c(/C=C2\\C=Nc3ccccc32)sc1=O")
-0.44
>>> measured_value("O=C1Nc2ccc3sc4ccccc4c3c2C1=O")
-0.19
>>> measured_value("Cc1cccc(C2=N/C(=C\\c3cccnc3)C(=O)O2)c1")
0.12
>>> measured_value("O=Cc1ccc(N2CCCCC2)cc1")
-0.05
>>> measured_value("C/C(=N/N1CCN(Cc2cccc3ccccc23)CC1)c1cccnc1")
0.25
>>> measured_value("CCC1(c2ccccc2)C(=O)NCNC1=O")
0.77

----------
experimental.details: modulators of CIT2-GFP expression in yeast, confirmation, S. cerevisiae, GFP fusion, cherry picks, mother/daughter gates (AID 2274)
test.settings: S. cerevisiae CIT2-GFP strain, flow cytometry, 3 h; measured here: mother cell gate; at 10 µM; stronger effect = higher value
The entries below are paired with their reported GFP response, % of DMSO.
measurement.kind: GFP response, % of DMSO

>>> measured_value("O=C1/C(=C\\c2ccc(O)c(O)c2)SC(=S)N1Cc1ccccc1")
"108%"
>>> measured_value("CN1C(=O)c2cccc3c(Cl)ccc(c23)C1=O")
"98.1%"
>>> measured_value("CCOC(=O)C1=C(c2ccccc2)NC(=S)NC1c1cc([N+](=O)[O-])ccc1OC (stereo unspecified)")
"99.7%"
>>> measured_value("Cc1ccccc1NC(=O)CC1SC(=O)N(c2ccccc2)C1=O (stereo unspecified)")
"94.9%"
>>> measured_value("O=c1c2c(-c3ccc(Cl)cc3)csc2ncn1/N=C/c1cccc([N+](=O)[O-])c1O")
"98%"
>>> measured_value("O=C(Nc1c(-c2ccccc2)nc2c(Br)cc(Br)cn12)c1ccco1")
"90.4%"
>>> measured_value("Cc1cc(-n2nc(C)cc2C)n2ncc(-c3ccccc3)c2n1")
"98.1%"
>>> measured_value("Cc1ccccc1C(=O)Nc1ccccc1")
"102%"
>>> measured_value("Oc1c(Br)cc(Br)cc1C=Nc1cccc2ncccc12")
"89.5%"
>>> measured_value("N#Cc1cc([N+](=O)[O-])c(-n2nnc3ccccc32)c([N+](=O)[O-])c1")
"93.2%"
>>> measured_value("O=[N+]([O-])c1cc(C(F)(F)F)ccc1Sc1ccc2ccccc2n1")
"93.3%"
